Molecular target: CCR9 receptor (Homo sapiens)
Sequence (P51686 whole entry): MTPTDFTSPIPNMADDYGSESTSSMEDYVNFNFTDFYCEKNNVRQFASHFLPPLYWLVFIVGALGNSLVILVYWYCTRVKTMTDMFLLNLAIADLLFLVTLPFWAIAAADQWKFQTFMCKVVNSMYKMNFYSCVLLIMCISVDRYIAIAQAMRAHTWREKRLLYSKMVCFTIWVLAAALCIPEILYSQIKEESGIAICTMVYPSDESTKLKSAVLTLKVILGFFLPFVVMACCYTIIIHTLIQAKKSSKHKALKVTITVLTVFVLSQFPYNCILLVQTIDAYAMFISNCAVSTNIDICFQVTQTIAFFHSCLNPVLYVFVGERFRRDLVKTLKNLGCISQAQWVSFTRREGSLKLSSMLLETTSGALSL
Test: Calcium mobilization (Ca FLIPR) assay, antagonist mode vs TECK
Type: cell-based
Settings: LipE = pIC50-clogD
Experimental: Calcium Mobilization Assay: Cells expressing CCR9 receptor (MultiSpan, Hayward, Calif.) were seeded in 384-well plates. Ca^2+ assays were conducted after overnight culture in the plates according to the manufacturer's protocol using Screen Quest™ Fluo-8 no wash kit (AAT Bioquest, Sunnyvale, Calif.). […] Calcium flux was monitored for 90 seconds with compound application after 10 seconds. […]
Parameter LipE: see the listing below.

Completed entries (count: 3):
Cc1nc2ncnn2c(O)c1Cc1ccc(C(C)(C)C)cc1 [Compound 6]	2.4
CCOc1nc2nc(CC)c(Cc3ccc(C(C)(C)C)cc3)c(O)n2n1	4.2
CCc1nc2nc(N(C)C)nn2c(O)c1Cc1ccc(C(C)(C)C)cc1	4.1

Q. # lookup: LipE of CCc1nc2ncnn2c(O)c1Cc1ccc(C2(C)CCOCC2)cc1
A. 5.7

* * *

experiment: pH-solubility (high-throughput, buffers); format: physicochemical; conditions: pH 7.4 buffer, aqueous with cosolvent or surfactant or cyclodextrin, kinetic from dmso stock; pH 7.4 (Table 6); read-out: Solubility pH 7.4
MEASURED ATTRIBUTE: solubility at 24 h (µg/mL)
Give the number; µg/mL is assumed, so skip it.

Q. // lookup solubility at 24 h for Cc1nc2ncnn2c(O)c1Cc1ccc(C(C)(C)C)cc1 [Compound 6]
A. 140

* * *

Reported RLM CL (rat liver microsome hepatic clearance) by item:
assay: Rat liver microsome clearance; type: in vitro ADME; settings: first value of RLM/HLM cell
Quick reminder: number only, in mL/min/kg, skip the unit.

# example entries with known answers
CCc1nc2ncnn2c(O)c1Cc1ccc(C(C)(C)COC)cc1	49
CCOc1nc2nc(CC)c(Cc3ccc(C(C)(C)C)cc3)c(O)n2n1	16
COCc1nc2nc(O)c(Cc3ccc(C(C)(C)C)cc3)c(COC)n2n1	15
CC(C)(C)c1ccc(Cc2c(C3CCOC3)nc3ncnn3c2O)cc1 (stereo not drawn)	45
CCc1nc2nc(C(=O)N(C)C)nn2c(O)c1Cc1ccc(C(C)(C)C)cc1	42

Q. Form field: reported RLM CL (rat liver microsome hepatic clearance) of CCc1nc2nc(CO)nn2c(O)c1Cc1ccc(C(C)(C)C)cc1
A. 43

Q. Would you mind doing CCOc1nc2ncnn2c(O)c1Cc1ccc(C(C)(C)C)cc1 as well?
A. 52

Q. Further, for CCc1nc2ncnn2c(O)c1Cc1ccc(C2(C)CCOCC2)cc1 ?
A. 37

Q. Also CCc1nc2ncnn2c(O)c1Cc1ccc(C(C)(C)C#N)cc1 , if possible.
A. 7

Q. Continue with CC(C)Cc1nc2ncnn2c(O)c1Cc1ccc(C(C)(C)C)cc1
A. 43

* * *

Test: Rat PK (i.v./p.o.)
Format: in vivo
Settings: Sprague Dawley, plasma, iv, read-out: Rat In vivo CL
Description: Sprague Dawley Rats (n=3) were dosed both intravenously and orally with a solution formulation followed by plasma collection at time points providing sufficient coverage of the absorption, distribution, metabolism and excretion phases of the test article. Test article concentrations at each time point were determined by LC-MS detected bioanalytical analysis. […]
MEASURED ATTRIBUTE: clearance (mL/min/kg)
Numeric only. Scale: mL/min/kg

CCc1nc2ncnn2c(O)c1Cc1ccc(C(C)(C)C#N)cc1	1
Cc1nc2ncnn2c(O)c1Cc1ccc(C(C)(C)C)cc1	24
CC(C)(C)c1ccc(Cc2c(C3CCC3)nc3ncnn3c2O)cc1	17

Q. Please report the recorded clearance for COCc1nc2ncnn2c(O)c1Cc1ccc(C(C)(C)C)cc1 .
A. 5
